All values here come from patent US8093226B2.

Tested on: Human T-lymphoid cell line CCRF-CEM
ASSAY INFO: Cell cycle distribution in human T-lymphoid cells (propidium iodide, flow cytometry)
Format: cell-based
RECORDED CONDITIONS: 72 hours, concentration corresponding to CC50, untreated control = 1
QUANTITY MEASURED: Relative change in cell cycle phase compared to untreated control, G1

> print(dat)
                                item.smiles                       assayed.target  value.reported
1  OC[C@H]1O[C@@H](n2ccc3c(-c4cccs4)ncnc32)[C@H](O)[C@@H]1O  Human T-lymphoid cell line CCRF-CEM            0.52
2  OC[C@H]1O[C@@H](n2ccc3c(-c4ccco4)ncnc32)[C@H](O)[C@@H]1O  Human T-lymphoid cell line CCRF-CEM            0.57
3  OC[C@H]1O[C@@H](n2cc(F)c3c(-c4cccs4)ncnc32)[C@H](O)[C@@H]1O  Human T-lymphoid cell line CCRF-CEM            0.74
4  OC[C@H]1O[C@@H](n2cc(F)c3c(-c4ccco4)ncnc32)[C@H](O)[C@@H]1O  Human T-lymphoid cell line CCRF-CEM            0.61
